B1: NFE2L1 (parent)
chain: TLDGYGIHPKSIDLDNYFTARRLL

Variants of: B1
experimentDescription: protein stability index of a GFP-peptide fusion (GPS, HEK-293T) (PSI 1-6); higher = more stable;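 further: lentivirally expressed fusions sorted by FACS into six bins by GFP to DsRed ratio, PSI derived from sequencing read proportions per bin multiplied by bin number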
studyConditions: c terminus: a fixed tail appended
// reported protein stability index for each item listed
endpointName: protein stability index

itemSequence: TLDGYGIHPKSIDLDAYFTARRLL [N16A]
endpointName: protein stability index
observedMeasurement: 1.72
//
itemSequence: TLDGYGIHPKSIDLDNYFTARCLL [R22C]
endpointName: protein stability index
observedMeasurement: 2.16
//
itemSequence: TLDGYGIHPKSIDLDDYFTARRLL [N16D]
endpointName: protein stability index
observedMeasurement: 2.03
//
itemSequence: TLDGYGIHPKSIDLLNYFTARRLL [D15L]
endpointName: protein stability index
observedMeasurement: 1.57
//
itemSequence: TLDGYGIHPSSIDLDNYFTARRLL [K10S]
endpointName: protein stability index
observedMeasurement: 2.22
//
itemSequence: TLDGYRIHPKSIDLDNYFTARRLL [G6R]
endpointName: protein stability index
observedMeasurement: 1.87
//
itemSequence: TLDGYGIHPKFIDLDNYFTARRLL [S11F]
endpointName: protein stability index
observedMeasurement: 2.29
//
itemSequence: TLDGYGMHPKSIDLDNYFTARRLL [I7M]
endpointName: protein stability index
observedMeasurement: 1.75
//
itemSequence: TLDGYGIHPKSINLDNYFTARRLL [D13N]
endpointName: protein stability index
observedMeasurement: 2.1
//
itemSequence: TLDGYGIHPKSIDFDNYFTARRLL [L14F]
endpointName: protein stability index
observedMeasurement: 1.82
//
itemSequence: TLDGYGIHPKSIDLDCYFTARRLL [N16C]
endpointName: protein stability index
observedMeasurement: 2.51
//
itemSequence: TLDGYGIHPKSIDLDNYFTARNLL [R22N]
endpointName: protein stability index
observedMeasurement: 1.85
//
itemSequence: TLDGYGIHPKSIFLDNYFTARRLL [D13F]
endpointName: protein stability index
observedMeasurement: 1.48
//
itemSequence: TLDGYGVHPKSIDLDNYFTARRLL [I7V]
endpointName: protein stability index
observedMeasurement: 1.68
//
itemSequence: TLDGYGIKPKSIDLDNYFTARRLL [H8K]
endpointName: protein stability index
observedMeasurement: 2.07
//
itemSequence: TLDGYGIHPKAIDLDNYFTARRLL [S11A]
endpointName: protein stability index
observedMeasurement: 1.49
//
itemSequence: TLDGYGIHPKSIDLDNYFTARRIL [L23I]
endpointName: protein stability index
observedMeasurement: 1.64
//
itemSequence: TLDGYKIHPKSIDLDNYFTARRLL [G6K]
endpointName: protein stability index
observedMeasurement: 1.91
//
itemSequence: TLDGYGIHPKSIDSDNYFTARRLL [L14S]
endpointName: protein stability index
observedMeasurement: 2.62
//
itemSequence: TLAGYGIHPKSIDLDNYFTARRLL [D3A]
endpointName: protein stability index
observedMeasurement: 2.61
//
itemSequence: TLGGYGIHPKSIDLDNYFTARRLL [D3G]
endpointName: protein stability index
observedMeasurement: 1.65
//
itemSequence: TLDGYGIHPKKIDLDNYFTARRLL [S11K]
endpointName: protein stability index
observedMeasurement: 2.58
//
itemSequence: TLQGYGIHPKSIDLDNYFTARRLL [D3Q]
endpointName: protein stability index
observedMeasurement: 1.79
//
itemSequence: TLDGYGIHFKSIDLDNYFTARRLL [P9F]
endpointName: protein stability index
observedMeasurement: 1.55
//
itemSequence: TLDQYGIHPKSIDLDNYFTARRLL [G4Q]
endpointName: protein stability index
observedMeasurement: 1.75
//
itemSequence: TLDGYGIHPKSIDLDNYFTARHLL [R22H]
endpointName: protein stability index
observedMeasurement: 2.2
//
itemSequence: TLDGYGIHPKDIDLDNYFTARRLL [S11D]
endpointName: protein stability index
observedMeasurement: 2.38
//
itemSequence: TLDKYGIHPKSIDLDNYFTARRLL [G4K]
endpointName: protein stability index
observedMeasurement: 1.53
//
itemSequence: TLDGYGIHPKSIDLDNYFTERRLL [A20E]
endpointName: protein stability index
observedMeasurement: 1.87
//
itemSequence: TLDGYGIHPKSIDLDNYFTAFRLL [R21F]
endpointName: protein stability index
observedMeasurement: 1.77
//
itemSequence: TLDGIGIHPKSIDLDNYFTARRLL [Y5I]
endpointName: protein stability index
observedMeasurement: 2.21
//
itemSequence: TLDGYGIHPKSIDLDNRFTARRLL [Y17R]
endpointName: protein stability index
observedMeasurement: 2.58
//
itemSequence: TLDSYGIHPKSIDLDNYFTARRLL [G4S]
endpointName: protein stability index
observedMeasurement: 2.13
//
itemSequence: TLDGYGIHPKSIDLDNHFTARRLL [Y17H]
endpointName: protein stability index
observedMeasurement: 2.56
//
itemSequence: TLDGYGIHPKIIDLDNYFTARRLL [S11I]
endpointName: protein stability index
observedMeasurement: 1.4
//
itemSequence: TLDGYGIHPKSIDLDNYFTIRRLL [A20I]
endpointName: protein stability index
observedMeasurement: 1.77
//
itemSequence: TLDGYGIHPKSIDLDNYFTADRLL [R21D]
endpointName: protein stability index
observedMeasurement: 2.67
//
itemSequence: TLDGYGIHPKSIDLDNYGTARRLL [F18G]
endpointName: protein stability index
observedMeasurement: 2.67
//
itemSequence: TLDGDGIHPKSIDLDNYFTARRLL [Y5D]
endpointName: protein stability index
observedMeasurement: 2.8
//
itemSequence: TLDGYGIHPKSIDLDNYFTVRRLL [A20V]
endpointName: protein stability index
observedMeasurement: 1.35
//
itemSequence: TLDGYGYHPKSIDLDNYFTARRLL [I7Y]
endpointName: protein stability index
observedMeasurement: 1.9
//
itemSequence: TLDGYGIHPHSIDLDNYFTARRLL [K10H]
endpointName: protein stability index
observedMeasurement: 2.2
//
itemSequence: TLDGYNIHPKSIDLDNYFTARRLL [G6N]
endpointName: protein stability index
observedMeasurement: 2.21
//
itemSequence: TLDGYGIHPKSIDQDNYFTARRLL [L14Q]
endpointName: protein stability index
observedMeasurement: 2.21
//
itemSequence: TLDGYGIHPKSIDLDNYFTARFLL [R22F]
endpointName: protein stability index
observedMeasurement: 1.6
//
itemSequence: TLDGEGIHPKSIDLDNYFTARRLL [Y5E]
endpointName: protein stability index
observedMeasurement: 2.21
//
itemSequence: TLDGYGPHPKSIDLDNYFTARRLL [I7P]
endpointName: protein stability index
observedMeasurement: 2.12
//
itemSequence: TLDGYVIHPKSIDLDNYFTARRLL [G6V]
endpointName: protein stability index
observedMeasurement: 2.25
//
itemSequence: TLDGYGIHPKSIDLDNYFAARRLL [T19A]
endpointName: protein stability index
observedMeasurement: 2.01
//
itemSequence: TLDGYGIHPKSIDEDNYFTARRLL [L14E]
endpointName: protein stability index
observedMeasurement: 3.11
//
itemSequence: TLDGYGIHPKSLDLDNYFTARRLL [I12L]
endpointName: protein stability index
observedMeasurement: 1.66
//
itemSequence: TLDGYGIHGKSIDLDNYFTARRLL [P9G]
endpointName: protein stability index
observedMeasurement: 1.91
//
itemSequence: TLDGYGAHPKSIDLDNYFTARRLL [I7A]
endpointName: protein stability index
observedMeasurement: 2.01
//
itemSequence: TLDGYGIHPKSPDLDNYFTARRLL [I12P]
endpointName: protein stability index
observedMeasurement: 3.06
//
itemSequence: TLDGYGIHPKSIDLDNYFTTRRLL [A20T]
endpointName: protein stability index
observedMeasurement: 1.49
//
itemSequence: TLDGYGIHPKSYDLDNYFTARRLL [I12Y]
endpointName: protein stability index
observedMeasurement: 1.99
//
itemSequence: TLDGYGSHPKSIDLDNYFTARRLL [I7S]
endpointName: protein stability index
observedMeasurement: 1.91
//
itemSequence: TLDGYGIHPKSIDLDNTFTARRLL [Y17T]
endpointName: protein stability index
observedMeasurement: 2.24
//
itemSequence: ILDGYGIHPKSIDLDNYFTARRLL [T1I]
endpointName: protein stability index
observedMeasurement: 1.36
//
itemSequence: TLDGYGIRPKSIDLDNYFTARRLL [H8R]
endpointName: protein stability index
observedMeasurement: 1.55
//
itemSequence: TLDGYGDHPKSIDLDNYFTARRLL [I7D]
endpointName: protein stability index
observedMeasurement: 2.4
//
itemSequence: TLDGYGIHPKSIDLDNYFTARRLG [L24G]
endpointName: protein stability index
observedMeasurement: 2.56
//
itemSequence: NLDGYGIHPKSIDLDNYFTARRLL [T1N]
endpointName: protein stability index
observedMeasurement: 1.61
//
itemSequence: TLDGYGIHPKSIDLDKYFTARRLL [N16K]
endpointName: protein stability index
observedMeasurement: 1.39
//
itemSequence: TLDGYGIHPKSIDLDNYFIARRLL [T19I]
endpointName: protein stability index
observedMeasurement: 2.03
//
itemSequence: TLDGYGIHNKSIDLDNYFTARRLL [P9N]
endpointName: protein stability index
observedMeasurement: 2.66
//
itemSequence: TLDGYGIHPKSIDLDNYFTYRRLL [A20Y]
endpointName: protein stability index
observedMeasurement: 1.92
//
itemSequence: TLDGYGIHQKSIDLDNYFTARRLL [P9Q]
endpointName: protein stability index
observedMeasurement: 2.08
//
itemSequence: TLDGYGIHPKSIDWDNYFTARRLL [L14W]
endpointName: protein stability index
observedMeasurement: 1.95
//
itemSequence: TLDRYGIHPKSIDLDNYFTARRLL [G4R]
endpointName: protein stability index
observedMeasurement: 1.95
//
itemSequence: TLDGYGIHPKSIDLDNYFTASRLL [R21S]
endpointName: protein stability index
observedMeasurement: 1.69
//
itemSequence: TLDGYGIHPKSIDLDNYFTARRLR [L24R]
endpointName: protein stability index
observedMeasurement: 3.05
//
itemSequence: TLDGYGIYPKSIDLDNYFTARRLL [H8Y]
endpointName: protein stability index
observedMeasurement: 1.72
//
itemSequence: TLDGYGIFPKSIDLDNYFTARRLL [H8F]
endpointName: protein stability index
observedMeasurement: 1.95
//
itemSequence: TLDPYGIHPKSIDLDNYFTARRLL [G4P]
endpointName: protein stability index
observedMeasurement: 1.63
//
itemSequence: TLDGYGKHPKSIDLDNYFTARRLL [I7K]
endpointName: protein stability index
observedMeasurement: 1.75
//
itemSequence: TLDGYGIHPKSIILDNYFTARRLL [D13I]
endpointName: protein stability index
observedMeasurement: 2.77
//
itemSequence: TLDGYGIHPASIDLDNYFTARRLL [K10A]
endpointName: protein stability index
observedMeasurement: 1.79
//
itemSequence: TLDGYGIHPYSIDLDNYFTARRLL [K10Y]
endpointName: protein stability index
observedMeasurement: 1.39
//
itemSequence: SLDGYGIHPKSIDLDNYFTARRLL [T1S]
endpointName: protein stability index
observedMeasurement: 1.82
//
itemSequence: TLDGYGIHPKHIDLDNYFTARRLL [S11H]
endpointName: protein stability index
observedMeasurement: 1.89
//
itemSequence: TLDGYGIHPKSIDLDQYFTARRLL [N16Q]
endpointName: protein stability index
observedMeasurement: 1.8
//
itemSequence: TLDGYQIHPKSIDLDNYFTARRLL [G6Q]
endpointName: protein stability index
observedMeasurement: 1.94
//
itemSequence: TLDGYGIHPKSIDLDNYFCARRLL [T19C]
endpointName: protein stability index
observedMeasurement: 1.69
//
itemSequence: TLDWYGIHPKSIDLDNYFTARRLL [G4W]
endpointName: protein stability index
observedMeasurement: 1.91
//
itemSequence: TLDGYGIHPKSIDLDNYFTARQLL [R22Q]
endpointName: protein stability index
observedMeasurement: 1.89
//
itemSequence: TLDGYGIHIKSIDLDNYFTARRLL [P9I]
endpointName: protein stability index
observedMeasurement: 2.39
//
itemSequence: TLDGYGIHPKSRDLDNYFTARRLL [I12R]
endpointName: protein stability index
observedMeasurement: 1.93
//
itemSequence: TLDGYGIHPKSIDLWNYFTARRLL [D15W]
endpointName: protein stability index
observedMeasurement: 2.21
//
itemSequence: TLDGYGIHPKSIDLDNYFTARRLN [L24N]
endpointName: protein stability index
observedMeasurement: 2.48
//
itemSequence: TLDGYGIHPKSIDLPNYFTARRLL [D15P]
endpointName: protein stability index
observedMeasurement: 2.06
